- targetOrSystem: T1, SARS-CoV-2 N protein, full-length (SARS-CoV-2, UniProt P0DTC9 1-419)
- T1 construct: mature; also called SARS-CoV-2 nucleoprotein
- assayInfo: Octet (BLI) kinetics
List of Kd values.
Numeric answer only, unit pM assumed.

Consider the worked cases shown below.
binder: NP3-B2 (antibody, V domains shown) VH: QIQLVQSGGGLVKPGGSLKLSCAASGFTFSDYYMSWVRQTPEKRLEWVATISDGGSYTYYPDSVKGRFTISRDNAKNNLYLHMSSLKSEDTAMYYCARGSTYGNPLDYWGQGTTLTVSS VL: DIQMTQTTSSLSASLGDRVTINCSASQGISNYLNWYQQKPDGTVKLLIYFTSSLHSGFPSRFSGSGSGTDFSLTISNLEPEDIATYYCQQYSKLPFTFGSGTKLEIK
Kd [pM]: 1510
//
binder: NP3-G6 (antibody, V domains shown) VH: EVQLVESGGGLVKPGGSLKLSCAASGFTFSDYYMSWVRQTPEKRLEWVATISDGGSYTYYPDSVKGRFTISRDNAKNNLYLHMSSLKSEDTAMYYCARGSTYGNPLDYWGQGTSVTVSS VL: DIQMTQSPASLSASLGDRVTINCSASQGISNYLNWYQQKPDGTVKLLIYFTSSLHSGFPSRFSGSGSGTDFSLTISNLEPEDIATYYCQQYSKLPFTFGSGTKLEIK
Kd [pM]: 430
//
binder: NP3-F4 (antibody, V domains shown) VH: EVQLVESGPELKKPGETVKIPCKTSGYTFTNYGMNWVKQAPGKGLKWMGWINTNTGEPTYAEDFKGRFAFSLETSASTAYLQISNLKNEDTATFFCARGSIYDGYYEGLYYWGQGTTLTVSS VL: DIKMTQSPSSLSVSVGETVTITCRASENIYSNLAWYQQKQGKSPQLLVSAATNLADNVPSRFSGSGSGTQYSLKINSLQSEDFGSYYCQHFWGFPRTFGGGTKLEIK
Kd [pM]: 2840
//
binder: NP3-E5 (antibody, V domains shown) VH: EVQLVESGGGLVKPGGSLKLSCAASGFTFSDYYMSWVRQTPEKRLEWVATISDGGNYTYYPDSVKGRFTISRDNAKNNLYLQMSSLKSEDTAMYYCARGSTYGNPLDHWGQGTTLTVSS VL: DIQMTQTTSSLSASLGDRVTINCSASQGISNYLNWYQQKPDGTVKLLIYYTSILHSGVPSRFSGSGSGTDYSLTISNLEPEDIATYYCQQYSKLPFTFGSGTKLEIK
Kd [pM]: 800

Consider the additional binder presented here.
What does the record list as Kd for NP3-E4 (antibody, V domains shown) VH: EVQLVESGPGLVAPSQSLSITCTVSGFSLTSYGVSWVRQPPGKGLEWLGVIWGDGSTNYHSALISRLSINKDNSKSQVFLRLNSLQTDDTATYYCAKEDDGYLFYFDYWGQGTTLTVSS VL: DIKMTQSPSSLSASLGDRVTISCSASQDISDYLNWYQQKPDGTVKLLIYYTSSLHSGVPSRFSGSGSGTDYSLTISNLEPEDIATYYCQQYSKLPYTFGGGTKLEIK ?
710
